# credit: PubChem BioAssay (NCI)

- TEST_DESCRIPTION: NCI Yeast Anticancer Drug Screen. Data for the cln2 rad14 strain (AID 165);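 also: 0% = growth equal to vehicle treated cultures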
- CONDITION_NOTES: S. cerevisiae cln2 rad14 strain, at 50.0 µM (retest, dose inferred, filed as 5.0), active compounds read high
About 79,000 compounds went through this panel and 15% of them were active in at least one assay; those are over-represented in the sample as a whole. Active and inactive are the calls of the source. Rule as the data show it: active = growth inhibition above about 70%; inactive = the rest.
MEASURE: growth inhibition

Please review the following examples before continuing.
# COMPOUND, MEASURE, VALUE_MEASURED
rows = [
    ("CCOC(=O)N1CCN(CCCCCCOc2ccc(C(C)(C)C)cc2)CC1", "growth inhibition", "61% (inactive)"),
    ("CCC[C@H]1[C@H](CCC)[C@@]2(OC(=O)C3=C2CCC=C3)[C@]12OC(=O)C1=C2CCC=C1", "growth inhibition", "99% (active)"),
    ("C[C@H](CCC1=NCCN1)[C@H]1CC[C@H]2[C@@H]3CC[C@@H]4C[C@H](O)CC[C@]4(C)[C@H]3C[C@H](O)[C@]12C", "growth inhibition", "99% (active)"),
    ("Cc1ccc(C)c2c3c([nH]c12)-c1ccccc1CC3", "growth inhibition", "7% (inactive)"),
    ("COc1ccc(NNC(=O)c2ccccc2)cc1", "growth inhibition", "97% (active)"),
]

So, O=C(O)c1cccc(S(=O)(=O)NN2C(=O)CSC2c2c(O)ccc3ccccc23)c1 (stereo unspecified) ? Its growth inhibition was 57% (inactive)

So, `COc1cc2cc[n+]3c4ccc([N+](=O)[O-])cc4ccc3c2cc1OC` ? Its growth inhibition was 71% (active)

So, `COC(=O)c1ccccc1NC(=O)C(=O)Cc1nc2c3c(ccc2[nH]c1=O)C(=O)c1ccccc1C3=O` ? Its growth inhibition was 98% (active)

So, `CCOC(=O)/C(C#N)=C\c1cccc2ccccc12` ? Its growth inhibition was 27% (inactive)

So, CCCCCCCN(CCCCCCC)CC(O)Cc1cc2c(c3ccccc13)CCCC2 (stereo unspecified) ? Its growth inhibition was 97% (active)

So, Clc1ccc(C2SCc3nc4ccccc4n32)c(Cl)c1 (stereo unspecified) ? Its growth inhibition was 98% (active)

So, NC1=C(O)C(=O)C(c2c3ccccc3cc3ccccc23)O1 (stereo unspecified) ? Its growth inhibition was 95% (active)

So, Cc1ccc(S(=O)(=O)CC2COC(CS(=O)(=O)c3ccc(C)cc3)CO2)cc1 (stereo unspecified) ? Its growth inhibition was 5% (inactive)

So, `Cc1csc2c1C(=O)c1ccsc1C2=O` ? Its growth inhibition was 98% (active)

So, `CCC1(C)C(C#N)(C#N)C1(C#N)C#N` ? Its growth inhibition was 85% (active)

So, CC1CC2(C)ON=C(c3ccccc3)N2c2ccccc2S1 (stereo unspecified) ? Its growth inhibition was 97% (active)

---

- TEST_DESCRIPTION: NCI Yeast Anticancer Drug Screen. Data for the sgs1 mgt1 strain (AID 161);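 also: 0% = growth of cultures given vehicle only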
- CONDITION_NOTES: S. cerevisiae sgs1 mgt1 strain, at 50.0 µM (retest, dose inferred, filed as 5.0), active compounds read high
About 79,000 compounds went through this panel and 15% of them were active in at least one assay; those are over-represented in the sample as a whole.
Decide by growth inhibition: equal to or exceeding 60% means true (1), less means false (0).

Sample answers from the record:
# COMPOUND, GROUP_LABEL
data = [
    ("C=C(Br)CN(C)CC(=C)Br", "false (0)"),
    ("COc1cc2c3c(c4ccc(OC)c(OC)c4c2cc1OC)CN1CCC[C@@H]1C3", "true (1)"),
    ("COC(=O)c1ccccc1C=C(c1ccc([N+](=O)[O-])cc1)c1ccc([N+](=O)[O-])cc1", "true (1)"),
]

Query: Quick check, growth inhibition >= 60%? `CCCCCN(CCCCC)CCNc1ccc(C)c2sc3ccccc3c(=O)c12`
Reply: true (1)

Query: Quick check, growth inhibition >= 60%? CNC1=C2NC(=O)/C(C)=C\C=C\C(C)C(O)C(C)C(O)C(C)C(OC(C)=O)C(C)C(OC)/C=C/OC3(C)Oc4c(C)c(O)c(c(c4C3=O)C1=O)C2=O (configuration not stated)
Reply: false (0)

Query: Quick check, growth inhibition >= 60%? `C[Si](C)c1cccc(Cl)c1`
Reply: false (0)
